Parameter Mean % WT Binding: see the listing below.
Target: human CD33 N20P (human, UniProt P20138 18-364)
Sequence (P20138 18-364 N20P limits assumed): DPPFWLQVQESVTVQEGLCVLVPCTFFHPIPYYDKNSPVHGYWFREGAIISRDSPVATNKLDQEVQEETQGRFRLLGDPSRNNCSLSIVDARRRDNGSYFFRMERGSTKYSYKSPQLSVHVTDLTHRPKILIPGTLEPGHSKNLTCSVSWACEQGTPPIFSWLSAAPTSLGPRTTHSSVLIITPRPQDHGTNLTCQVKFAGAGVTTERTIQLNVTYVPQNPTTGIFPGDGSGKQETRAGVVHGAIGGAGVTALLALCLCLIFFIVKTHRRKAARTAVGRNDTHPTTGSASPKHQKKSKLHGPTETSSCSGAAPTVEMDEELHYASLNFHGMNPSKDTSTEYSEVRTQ
Test: flow cytometry, mutant on cells, IgG
Kindly provide the numeric value in % WT binding only, without the unit symbol.

[[record]]
binder = "Refmab #4 (antibody, human IgG1, V domains shown, Tested in IgG format; human IgG1 Fc silent (PG-LALA)) VH: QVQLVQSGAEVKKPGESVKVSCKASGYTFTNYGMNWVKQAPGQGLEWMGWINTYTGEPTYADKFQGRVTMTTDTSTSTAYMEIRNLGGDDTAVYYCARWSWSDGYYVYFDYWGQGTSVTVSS VL: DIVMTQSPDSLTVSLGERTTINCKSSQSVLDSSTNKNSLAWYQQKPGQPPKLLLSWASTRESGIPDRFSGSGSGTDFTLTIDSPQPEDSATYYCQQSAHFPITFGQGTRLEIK"
readout_units = "% WT binding"
numeric_readout = 98.5


Exercise: Which Mean % WT Binding value belongs to Refmab #2 (antibody, human IgG1, V domains shown, Tested in IgG format; human IgG1 Fc silent (PG-LALA)) VH: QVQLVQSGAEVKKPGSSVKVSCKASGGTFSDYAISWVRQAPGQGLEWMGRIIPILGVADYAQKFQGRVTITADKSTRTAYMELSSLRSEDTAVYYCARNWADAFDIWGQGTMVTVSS VL: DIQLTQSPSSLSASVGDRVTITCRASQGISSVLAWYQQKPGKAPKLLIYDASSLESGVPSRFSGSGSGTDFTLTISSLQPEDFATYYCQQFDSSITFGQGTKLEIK ?
Solution: 98.5

Exercise: Again, but for Refmab #1 (antibody, human IgG1, V domains shown, Tested in IgG format; human IgG1 (Absolute Antibody hP67.6, Cat. No. Ab00283-10.0); also called hP67.6) VH: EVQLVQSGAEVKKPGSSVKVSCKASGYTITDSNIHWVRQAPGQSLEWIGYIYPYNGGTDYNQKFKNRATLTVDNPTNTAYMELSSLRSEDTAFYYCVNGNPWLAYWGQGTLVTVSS VL: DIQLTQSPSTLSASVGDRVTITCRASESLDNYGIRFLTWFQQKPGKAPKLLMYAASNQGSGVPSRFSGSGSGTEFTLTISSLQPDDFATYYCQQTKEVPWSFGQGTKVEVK
Solution: 2.9

Exercise: Again, but for Refmab #3 (antibody, human IgG1, V domains shown, Tested in IgG format; human IgG1 Fc silent (PG-LALA)) VH: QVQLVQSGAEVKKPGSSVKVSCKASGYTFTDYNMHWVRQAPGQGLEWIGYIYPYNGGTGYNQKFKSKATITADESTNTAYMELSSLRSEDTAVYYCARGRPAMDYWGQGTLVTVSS VL: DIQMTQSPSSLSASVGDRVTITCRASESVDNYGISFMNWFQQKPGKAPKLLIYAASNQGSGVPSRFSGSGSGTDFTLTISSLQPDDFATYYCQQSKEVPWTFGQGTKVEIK
Solution: 1.7
